# Assay notes: Biodistribution in rats
# Assay type: in vivo, male rats
# Assay setup: 2 min post-injection, i.v.
# Description: Biodistribution in Rats--Methods The quantitative biodistribution was studied in male rats at 2 minutes, 1 hour and 4 hours post-injection Rats under light anaesthesia were injected intravenously with 0.1 ml of test agent. Three rats were sacrificed (anaesthesia followed by exsanguination) at 2, 60 and 240 minutes, post-injection. The percentage of the injected dose in the excreta and organs and tissues was determined by dissection and assay for radioactivity in an automatic gamma counter.
Measured attribute: Liver (percent injected dose)
Answer with a number only, understood to be in percent injected dose.

Here's what some known entries look like.
Molecule	Liver [percent injected dose]
CC(C)(C=NO)NCCCCNC(C)(C)C=NO [Compound VI]	12.2
CCC(=NO)C(C)(C)NCCCCNC(C)(C)C(C)=NO [Compound IX]	12.9
CC(=NO)C(C)(C)NCCCCNC(C)(C)C(C)=NO [Compound I]	10.6
CC(=NO)C(C)(C)NCCCNC(C)(C)C(C)=NO [Compound X, reference compound]	27.9

Which value of Liver has been reported for CC(=NO)C(C)(C)NCCCCNC(C)(C)C(Cn1ccnc1[N+](=O)[O-])=NO [Compound II] in the records? 15.5

Quick one: Liver for CC(C)(NCCCCNC(C)(C)C(Cn1ccnc1[N+](=O)[O-])=NO)C(Cn1ccnc1[N+](=O)[O-])=NO [Compound XI] ? 21.7

Would you kindly share the measured Liver for CC(=NO)C(C)(C)NCCCCCNC(C)(C)C(Cn1ccnc1[N+](=O)[O-])=NO [Compound IV] ? 15.6

Any idea what its Liver is? The molecule is CCC(=NO)C(C)(C)NCCCCNC(C)(C)C(CC)=NO [Compound VIII] 13.6

Which Liver is reported for this molecule? COCC(=NO)C(C)(COC)NCCCCNC(C)(COC)C(COC)=NO (stereo not drawn) [Compound XV] 10.2

###

Reported Muscle values for a set of compounds
# Assay notes: Biodistribution in rats
# Assay type: in vivo, male rats
# Assay setup: 2 min post-injection, i.v., ^99m Tc complex
// units = percent injected dose; emit number, no label

The examples below pair each entry with its known result.
Compound	Quantity unit	Quantitative result
COCC(=NO)C(C)(COC)NCCCCNC(C)(COC)C(COC)=NO (stereo not drawn) [Compound XV]	percent injected dose	27.4
CC(=NO)C(C)NCCCCNC(C)C(C)=NO (stereo not drawn) [Compound XIII]	percent injected dose	25.7
CC(=NO)C(C)(C)NCCCCNC(C)(C)C(Cn1ccnc1[N+](=O)[O-])=NO [Compound II]	percent injected dose	26.1
CCC(=NO)C(C)(C)NCCCCNC(C)(C)C=NO [Compound VII]	percent injected dose	25.6
CC(=NO)C(C)(C)NCCCNC(C)(C)C(Cn1ccnc1[N+](=O)[O-])=NO [Compound V, reference compound]	percent injected dose	29.6
CC(C)(C=NO)NCCCCNC(C)(C)C(Cn1ccnc1[N+](=O)[O-])=NO [Compound XII]	percent injected dose	23.9
COC(=O)C(CCCNC(C)(C)C(C)=NO)NC(C)(C)C(C)=NO (stereo not drawn) [Compound XVI]	percent injected dose	24.4
CC(=NO)C(C)(C)NCCCCCNC(C)(C)C(C)=NO [Compound III]	percent injected dose	26.9

Recorded Muscle for CC(=NO)C(C)(C)NCCCCCNC(C)(C)C(Cn1ccnc1[N+](=O)[O-])=NO [Compound IV] , please? 24.3

Entry CC(C)(NCCCCNC(C)(C)C(Cn1ccnc1[N+](=O)[O-])=NO)C(Cn1ccnc1[N+](=O)[O-])=NO [Compound XI] has what Muscle? 18.7

Query (compound): CCC(=NO)C(C)(C)NCCCCNC(C)(C)C(C)=NO [Compound IX] ; field requested: Muscle 32.1

Consider the compound shown here: CCC(=NO)C(C)(C)NCCCCNC(C)(C)C(CC)=NO [Compound VIII] What is its recorded Muscle? 29.7

Entry under review: CC(C)(C=NO)NCCCCNC(C)(C)C=NO [Compound VI] . Reported Muscle? 24.8

Which Muscle value belongs to CC(=NO)C(C)(C)NCCCCNC(C)(C)C(C)=NO [Compound I] ? 35.2

Muscle lookup needed for CC(=NO)C(C)(C)NCCCNC(C)(C)C(C)=NO [Compound X, reference compound] , thanks. 34.9

###

# Assay notes: Biodistribution in rats
# Type: in vivo, male rats
# Assay setup: 60 min post-injection, i.v.
Measured attribute: Gut (percent injected dose)
Field format: number, assumed percent injected dose, no unit text.

Use these answered entries as a reference point.
Compound	Quantitative result
COCC(=NO)C(C)(COC)NCCCCNC(C)(COC)C(COC)=NO (stereo not shown)	21.3
CC(C)(NCCCCNC(C)(C)C(Cn1ccnc1[N+](=O)[O-])=NO)C(Cn1ccnc1[N+](=O)[O-])=NO	56.7
COC(=O)C(CCCNC(C)(C)C(C)=NO)NC(C)(C)C(C)=NO (stereo not shown)	6.5
CC(C)(C=NO)NCCCCNC(C)(C)C(Cn1ccnc1[N+](=O)[O-])=NO	31.9
CC(=NO)C(C)(C)NCCCNC(C)(C)C(C)=NO [Compound X, reference compound]	51.5
CC(C)(C=NO)NCCCCNC(C)(C)C=NO	16.3

Dear colleague, I am looking for the recorded Gut of the following compound: CC(=NO)C(C)NCCCCNC(C)C(C)=NO (stereo not shown) 23.0

Using the record for CC(=NO)C(C)(C)NCCCCCNC(C)(C)C(C)=NO , report its Gut. 25.0

Query: Gut; subject: CC(=NO)C(C)(C)NCCCCNC(C)(C)C(Cn1ccnc1[N+](=O)[O-])=NO 40.0

What value of Gut has been reported for the following compound? CC(=NO)C(C)(C)NCCCNC(C)(C)C(Cn1ccnc1[N+](=O)[O-])=NO [Compound V, reference compound] 45.9

###

# Assay notes: Biodistribution in rats
# Format: in vivo, male rats
# Assay setup: second of two values, 60 or 240 min not assignable, i.v.
Below, each entry is listed with its recorded Kidney.
Provide the reading as a plain figure in percent injected dose.

Guide cases for Kidney, answers given:
Compound	Quantity unit	Kidney
CC(=NO)C(C)(C)NCCCCCNC(C)(C)C(C)=NO	percent injected dose	4.2
COCC(=NO)C(C)(COC)NCCCCNC(C)(COC)C(COC)=NO (stereo not drawn)	percent injected dose	6.2

Reported Kidney for CC(=NO)C(C)(C)NCCCNC(C)(C)C(C)=NO [Compound X, reference compound] : what is it? 2.1

Need Kidney of CC(=NO)C(C)(C)NCCCNC(C)(C)C(Cn1ccnc1[N+](=O)[O-])=NO [Compound V, reference compound] , thanks. 3.2

Name the reported Kidney value associated with the compound CC(=NO)C(C)(C)NCCCCCNC(C)(C)C(Cn1ccnc1[N+](=O)[O-])=NO 2.7

Reported Kidney for CCC(=NO)C(C)(C)NCCCCNC(C)(C)C=NO : what is it? 3.4

Fill in: Kidney of CC(C)(NCCCCNC(C)(C)C(Cn1ccnc1[N+](=O)[O-])=NO)C(Cn1ccnc1[N+](=O)[O-])=NO is ___ 2.1

Returns the measured Kidney for the input compound. Input: CC(=NO)C(C)(C)NCCCCNC(C)(C)C(C)=NO 5.6

Query: Kidney; subject: CCC(=NO)C(C)(C)NCCCCNC(C)(C)C(CC)=NO 2.5

Would you mind telling me what Kidney value was observed for COC(=O)C(CCCNC(C)(C)C(C)=NO)NC(C)(C)C(C)=NO (stereo not drawn) ? 7.6

Using the record for CC(=NO)C(C)(C)NCCCCNC(C)(C)C(Cn1ccnc1[N+](=O)[O-])=NO , report its Kidney. 1.4

Param item = CC(C)(C=NO)NCCCCNC(C)(C)C=NO ; retrieve measured Kidney. 10.4

Given the compound CCC(=NO)C(C)(C)NCCCCNC(C)(C)C(C)=NO , what is its reported Kidney? 2.2

Item under review: CC(=NO)C(C)NCCCCNC(C)C(C)=NO (stereo not drawn) . Reported Kidney? 8.8

Dear colleague, I am looking for the recorded Kidney of the following compound: CC(C)(C=NO)NCCCCNC(C)(C)C(Cn1ccnc1[N+](=O)[O-])=NO 5.5

###

# Assay notes: Biodistribution in rats
# Assay type: in vivo, male rats
# Assay setup: 60 min post-injection, i.v.
Overview of reported Muscle across a group of molecules:
Numeric only. Scale: percent injected dose

A selection of reference data follows.
Molecule	Quantity unit	Muscle
CC(=NO)C(C)(C)NCCCNC(C)(C)C(C)=NO [Compound X, reference compound]	percent injected dose	7.9
COCC(=NO)C(C)(COC)NCCCCNC(C)(COC)C(COC)=NO (stereo not drawn)	percent injected dose	5.7
CCC(=NO)C(C)(C)NCCCCNC(C)(C)C(C)=NO	percent injected dose	8.3
CC(=NO)C(C)(C)NCCCCNC(C)(C)C(Cn1ccnc1[N+](=O)[O-])=NO	percent injected dose	6.6
CC(C)(NCCCCNC(C)(C)C(Cn1ccnc1[N+](=O)[O-])=NO)C(Cn1ccnc1[N+](=O)[O-])=NO	percent injected dose	5.6
COC(=O)C(CCCNC(C)(C)C(C)=NO)NC(C)(C)C(C)=NO (stereo not drawn)	percent injected dose	3.7
CC(C)(C=NO)NCCCCNC(C)(C)C=NO	percent injected dose	13.4
CC(C)(C=NO)NCCCCNC(C)(C)C(Cn1ccnc1[N+](=O)[O-])=NO	percent injected dose	8.2

I have this molecule here, CC(=NO)C(C)NCCCCNC(C)C(C)=NO (stereo not drawn) , and I need its recorded Muscle. 10.1
